Values compiled from ChEMBL document CHEMBL3259782.

# assay_protocol: Selectivity index, ratio of CC50 for African green monkey Vero cells to IC50 for promastigote stage of Leishmania donovani MHOM/IN/80/Dd8
# Assay type: functional
# reported_conditions: in the assay text read “amastigote stage” for “promastigote stage”
# Ratio CC50/IC50 listing for each entry below

smiles_text | prefix_operator | Ratio CC50/IC50
CC(C)=CCC/C(C)=C/COc1ccc(C(=O)/C=C/c2ccc(O)cc2)cc1 | = | 1.4
CC1(C)C=Cc2c(ccc(C(=O)/C=C/c3cccnc3)c2O)O1 | = | 0.4
CC(=O)Nc1ccc(/C=C/C(=O)c2ccc3c(c2O)C=CC(C)(C)O3)cc1 | = | 45.6
CN(C)c1ccc(/C=C/C(=O)c2ccc3c(c2O)C=CC(C)(C)O3)cc1 | > | 20.2
CCN(CC)CCOc1ccc(/C=C/C(=O)c2ccc3c(c2OCCN(CC)CC)C=CC(C)(C)O3)cc1 | = | 162.5
CC1(C)C=Cc2c(ccc(C(=O)/C=C/c3ccc(C#N)cc3)c2O)O1 | = | 9.8
CC1(C)C=Cc2c(ccc(C(=O)/C=C/c3ccc(OCCN4CCCC4)cc3)c2OCCN2CCCC2)O1 | = | 103.2
CC1(C)C=Cc2c(ccc(C(=O)/C=C/c3ccc(F)cc3)c2O)O1 | = | 9.5
CC1(C)C=Cc2c(ccc(C(=O)/C=C/c3ccc(OCCN4CCCCC4)cc3)c2O)O1 | > | 22.6
CCOc1ccc(/C=C/C(=O)c2ccc3c(c2O)C=CC(C)(C)O3)cc1 | = | 42.1
CC1(C)C=Cc2c(ccc(C(=O)/C=C/c3ccc(Cl)cc3Cl)c2O)O1 | = | 13.5
COc1ccc(/C=C/C(=O)c2ccc3c(c2O)C=CC(C)(C)O3)cc1OC | = | 22.4
Cc1ccc2nc(Cl)c(/C=C/C(=O)c3ccc4c(c3O)C=CC(C)(C)O4)cc2c1 | = | 75.3
CC1(C)C=Cc2c(ccc(C(=O)/C=C/c3ccc(Cl)c(Cl)c3)c2O)O1 | = | 10.2
CC1(C)C=Cc2c(ccc(C(=O)/C=C/c3cc4ccccc4nc3Cl)c2O)O1 | = | 21.2
CCCCCCCCCCCCCCCCOP(=O)([O-])OCC[N+](C)(C)C | = | 6.2
CC1(C)C=Cc2c(ccc(C(=O)/C=C/c3ccc([N+](=O)[O-])cc3)c2O)O1 | = | 20.4
CCN(CC)CCOc1ccc(/C=C/C(=O)c2ccc3c(c2O)C=CC(C)(C)O3)cc1 | = | 22.9
CN(C)c1ccc(/C=C/C(=O)c2ccc(OCCN3CCCCC3)cc2)cc1 | = | 27
CCOc1cc(/C=C/C(=O)c2ccc3c(c2O)C=CC(C)(C)O3)ccc1F | = | 15.3
CC1(C)C=Cc2c(ccc(C(=O)/C=C/c3ccc(Cl)cc3)c2O)O1 | = | 5.1
COc1ccc(/C=C/C(=O)c2ccc(OC/C=C(\C)CCC=C(C)C)cc2)cc1 | = | 47.2
CC1(C)C=Cc2c(ccc(C(=O)/C=C/c3ccc(F)c(F)c3)c2O)O1 | = | 8.6
CC1(C)C=Cc2c(ccc(C(=O)/C=C/c3ccc(OCCN4CCCCC4)cc3)c2OCCN2CCCCC2)O1 | = | 30.9
CC(C)=CCOc1ccc(C(=O)/C=C/c2ccc(N(C)C)cc2)cc1 | > | 97.6
CC1(C)C=Cc2c(ccc(C(=O)/C=C/c3ccccn3)c2O)O1 | = | 10.2
